# Test system: 349418-098-R-PDC spheroids, viability, % test/control;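 also: spheroids exposed to compounds for 7 days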
# Protocol Notes: Anticancer human tumor 349418-098-R-PDC patient-derived lung adenocarcinoma cell line growth inhibition [IpAb]; active = viability on the fitted dose curve at most 10% of control; inactive = the rest
# Cond: second compound 0.1 µM; first compound 0.01 µM; spheroids with HUVEC and MSC
Bench note: report the call from active, inactive

Hello, I am checking results. What call was entered for Cn1ncnc1[C@H]1c2n[nH]c(=O)c3cc(F)cc(c23)N[C@@H]1c1ccc(F)cc1 + CCN1CCN(Cc2ccc(Nc3ncc(F)c(-c4cc(F)c5nc(C)n(C(C)C)c5c4)n3)nc2)CC1 ? inactive

Hello, I am checking results. What call was entered for Cn1ncnc1[C@H]1c2n[nH]c(=O)c3cc(F)cc(c23)N[C@@H]1c1ccc(F)cc1 + CC(C)NCC(C(=O)N1CCN(c2ncnc3c2C(C)CC3O)CC1)c1ccc(Cl)cc1 ? inactive

Hello, I am checking results. What call was entered for CC(C)n1nc(-c2ccc3oc(N)nc3c2)c2c(N)ncnc21 + CC(C)NCC(C(=O)N1CCN(c2ncnc3c2C(C)CC3O)CC1)c1ccc(Cl)cc1 ? active

Hello, I am checking results. What call was entered for CC(C)n1nc(-c2ccc3oc(N)nc3c2)c2c(N)ncnc21 + CCN1CCN(Cc2ccc(Nc3ncc(F)c(-c4cc(F)c5nc(C)n(C(C)C)c5c4)n3)nc2)CC1 ? active

Hello, I am checking results. What call was entered for COc1c(OCCCN2CCOCC2)ccc2c3n(c(=NC(=O)c4cnc(N)nc4)nc12)CCN3 + CCN1CCN(Cc2ccc(Nc3ncc(F)c(-c4cc(F)c5nc(C)n(C(C)C)c5c4)n3)nc2)CC1 ? inactive

Hello, I am checking results. What call was entered for COc1c(OCCCN2CCOCC2)ccc2c3n(c(=NC(=O)c4cnc(N)nc4)nc12)CCN3 + CC(C)NCC(C(=O)N1CCN(c2ncnc3c2C(C)CC3O)CC1)c1ccc(Cl)cc1 ? inactive

These entries and their values trace back to PubChem BioAssay AID2060340.
